System: Brain
methodSummary: Drug concentration in Sprague-Dawley rat brain assessed as 6-(5-chloropyridin-2-yl)-3-(4-((3,3-difluoro-1-hydroxycyclobutyl)methoxy)-3-methoxyphenyl)pyrrolo[1,2-f][1,2,4]triazin-4(3H)-one level at 3 mg/kg, po qd at 20 hrs
Assay type: ADME, organism-based
experimentalParameters: in vivo, read-out: Drug uptake
parameter: concentration

compound: COc1cc(-n2cnn3cc(-c4ccc(Cl)cn4)cc3c2=O)ccc1OCC1(OC(=O)CN)CC(F)(F)C1
measured: 3.87 µM

###

Tested on: Rattus norvegicus
methodSummary: Antiobesity activity in Sprague-Dawley rat assessed as body weight reduction at 30 mg/kg, po qd after 4 days relative to control
Type: functional
experimentalParameters: 96 h

molecule: CC(C)[C@H](N)C(=O)OC1CCN(c2ccc(-n3cnn4cc(-c5ccc(Cl)cc5)cc4c3=O)cn2)CC1
measurementTarget: Rattus norvegicus
endpointUnit: %
inhibition in vivo at 30 mg/kg: 2.6
--
molecule: COc1cc(-n2cnn3cc(-c4ccc(Cl)cc4)cc3c2=O)ccc1OCC(OC(=O)[C@@H](N)C(C)C)C1CC1 (stereo not given in full)
measurementTarget: Rattus norvegicus
endpointUnit: %
inhibition in vivo at 30 mg/kg: 2.5
--
molecule: COc1cc(-n2cnn3cc(-c4ccc(Cl)cc4)cc3c2=O)ccc1OCC(C)OC(=O)[C@@H](N)C(C)C (stereo not given in full)
measurementTarget: Rattus norvegicus
endpointUnit: %
inhibition in vivo at 30 mg/kg: 7.6
--
molecule: COc1cc(-n2cnn3cc(-c4ccc(Cl)cn4)cc3c2=O)ccc1OCC1(OC(=O)CN)CC(F)(F)C1
measurementTarget: Rattus norvegicus
endpointUnit: %
inhibition in vivo at 30 mg/kg: 13
--
molecule: COc1cc(-n2cnn3cc(-c4ccc(Cl)cc4)cc3c2=O)ccc1OCC(C)(C)OC(=O)CN
measurementTarget: Rattus norvegicus
endpointUnit: %
inhibition in vivo at 30 mg/kg: 6.9
